# assay_method_text: chemical recovery by SPE of plasma after PDMS sampling; higher = better extraction
# conditions: pooled human plasma; extraction method: HLB SPE of plasma after PES; equilibration time (d): 6
Give chemical recovery by SPE of plasma for every item shown.
// unit must come after the numeric part

Answered cases to consult:
CCCSc1ccc2[nH]c(NC(=O)OC)nc2c1 [Albendazole]
2.28%
CSc1nc(NC2CC2)nc(NC(C)(C)C)n1 [Irgarol]
0.421%
C=Cc1c2ccccc2cc2ccccc12 [9-Vinylanthracene]
2.42%
CCNc1nc(Cl)nc(NC(C)C)n1 [Atrazine]
2.39%
N#Cc1nn(-c2c(Cl)cc(C(F)(F)F)cc2Cl)c(N)c1S(=O)(=O)C(F)(F)F [Fipronil sulfone]
30.8%

Please report chemical recovery by SPE of plasma for every entry that follows.
1. CCOc1nc2cccc(C(=O)O)c2n1Cc1ccc(-c2ccccc2-c2nnn[nH]2)cc1 [Candesartan]
2. COc1cc(O)c(C(=O)c2ccccc2)cc1S(=O)(=O)O [Benzophenone-4]
3. Nc1ccc2c(n1)[nH]c1ccccc12 [2-Amino-9H-pyrido[2,3-b]indole (AalphaC)]
4. CN(C/C=C/C#CC(C)(C)C)Cc1cccc2ccccc12 [Terbinafine]
5. CC(C)N(C(=O)COc1nnc(C(F)(F)F)s1)c1ccc(F)cc1 [Flufenacet]
6. CC(C)N1C(=O)c2ccccc2NS1(=O)=O [Bentazone]
7. c1ccc2c(c1)=c1ccc3c4c(ccc=2c14)=c1ccccc1=3 [Indeno(1,2,3-cd)fluoranthene]

stdout:
47.8%
43.3%
9.97%
0.0441%
0.269%
54.7%
0.409%

---

# assay_method_text: chemical recovery from spiked human plasma; higher = better extraction
# conditions: pooled human plasma; extraction method: solvent precipitation (ACN + hexane)
parameter_measured: chemical recovery

c1ccc2[nH]c(-c3cscn3)nc2c1 [Thiabendazole]
80.4%
Cc1cccc(C)c1N(Cn1cccn1)C(=O)CO [Metazachlor-2-hydroxy]
73.7%
CCC[C@@H]1C[C@@H](C(=O)N[C@@H]([C@H]2O[C@H](SC)[C@H](O)[C@@H](O)[C@H]2O)[C@@H](C)O)N(C)C1 [Lincomycin]
74.7%
O=C1Cc2ccccc2N1 [2-Oxindole]
39.1%
CCCCCCCCCCCCNC [N-Methyldodecylamine]
62.7%

Please report chemical recovery for every entry that follows.
1. CC(C)OC(=O)Nc1cccc(Cl)c1 [Chlorpropham]
2. Fc1ccc([C@@H]2CCNC[C@H]2COc2ccc3c(c2)OCO3)cc1 [Paroxetine]
3. O=C(NC(=O)c1c(F)cccc1F)Nc1ccc(Cl)cc1 [Diflubenzuron]
4. Cn1c(N)nc2c3cccnc3ccc21 [2-Amino-3-methyl-imidazo[4,5-f]quinoline-(IQ)]
5. COc1cc(OC)nc(NC(=O)NS(=O)(=O)c2cc(NC=O)ccc2C(=O)N(C)C)n1 [Foramsulfuron]

stdout:
43.8%
61.7%
48.6%
73.4%
69%

---

# assay_method_text: chemical recovery into PDMS from spiked human plasma; higher = better extraction
# conditions: pooled human plasma; extraction method: PES with PDMS; equilibration time (d): 6
Give chemical recovery into PDMS for every item shown.
Numbers only, in %.

c1ccc2c(c1)-c1cccc3c1c-2cc1ccccc13
93.6
ClC1=C(Cl)[C@]2(Cl)[C@@H]3[C@@H]4C[C@@H]([C@H]5O[C@@H]45)[C@@H]3[C@@]1(Cl)C2(Cl)Cl
97
Cc1cc(C2CC2)nc(Nc2ccccc2)n1
36.2
CNC(=O)Oc1cccc2c1OC(C)(C)O2
21.4

Switching to the query record.
stdin: Quote chemical recovery into PDMS reported for `CN(C/C=C/C#CC(C)(C)C)Cc1cccc2ccccc12` please.
stdout: 0.00509

---

# assay_method_text: chemical recovery by SPE of plasma after PDMS sampling; higher = better extraction
# conditions: pooled human plasma; extraction method: HLB SPE of plasma after PES; equilibration time (d): 6
parameter_measured: chemical recovery by SPE of plasma (%)
Answers are plain numbers, in %.

Answered cases to consult:
COCC(=O)N(c1c(C)cccc1C)C(C)C(=O)OC (configuration not stated) [Metalaxyl]
0.955
O=S(=O)(O)c1ccc2[nH]c(-c3ccccc3)nc2c1 [Phenylbenzimidazole sulfonic acid]
45.8
CC(CN1c2ccccc2Sc2ccccc21)N(C)C (configuration not stated) [Promethazin]
0.00932
O=P(c1ccccc1)(c1ccccc1)c1ccccc1 [Triphenylphosphine oxide]
6.26
CC[C@H]1OC(=O)C[C@@H](O)[C@H](C)[C@@H](O[C@@H]2O[C@H](C)[C@@H](O[C@H]3C[C@@](C)(O)[C@@H](O)[C@H](C)O3)[C@H](N(C)C)[C@H]2O)[C@@H](CC=O)C[C@@H](C)C(=O)/C=C/C(C)=C/[C@@H]1CO[C@@H]1O[C@H](C)[C@@H](O)[C@@H](OC)[C@H]1OC [TylosinCH4O]
33

Please report chemical recovery by SPE of plasma for every entry that follows.
1. COC(=O)c1cc(C(=O)OC)cc(S(=O)(=O)O)c1 [Dimethyl-5-sulfoisophthalate]
2. O=C(O)CCC(=O)c1ccc(F)cc1 [4-Fluorobenzoylpropionic acid]

stdout:
1: 49.3; 2: 56.6

---

# assay_method_text: chemical recovery into PDMS from spiked human plasma; higher = better extraction
# conditions: pooled human plasma; extraction method: PES with PDMS; equilibration time (d): 3
If the reported chemical recovery into PDMS equals or exceeds 40%, assign class 1. If not, assign class 0.

# example entries with known answers
CC(C)OC(=O)C(C)(C)Oc1ccc(C(=O)c2ccc(Cl)cc2)cc1 [Fenofibrate]
class 1
O=P1(NCCCl)OCCCN1CCCl (centres undefined) [Ifosfamide]
class 0
C[C@]12CCC(=O)C=C1CC[C@@H]1[C@@H]2CC[C@]2(C)C(=O)CC[C@@H]12 [4-Androstene-3,17-dione]
class 1
CCCCC(C#N)(Cn1cncn1)c1ccc(Cl)cc1 (centres undefined) [Myclobutanil]
class 1
CN(C)c1nc(=O)n(C2CCCCC2)c(=O)n1C [Hexazinone]
class 1

stdin: Does CCCNCCOc1c(Cl)cc(Cl)cc1Cl [Prochloraz BTS403-48] have a reported chemical recovery into PDMS of at least 40%?
stdout: class 0

stdin: Does Nc1ccc(/N=N/c2ccccc2)cc1 [Aniline Yellow] have a reported chemical recovery into PDMS of at least 40%?
stdout: class 0

stdin: Does Fc1ccc([C@]2(Cn3cncn3)O[C@H]2c2ccccc2Cl)cc1 (racemic) [Epoxiconazole] have a reported chemical recovery into PDMS of at least 40%?
stdout: class 1

stdin: Does CC1(C)O[C@@H]2C[C@H]3[C@@H]4C[C@H](F)C5=CC(=O)C=C[C@]5(C)[C@H]4[C@@H](O)C[C@]3(C)[C@]2(C(=O)CO)O1 [Flunisolide] have a reported chemical recovery into PDMS of at least 40%?
stdout: class 0

---

# assay_method_text: chemical recovery into PDMS from spiked human plasma; higher = better extraction
# conditions: pooled human plasma; extraction method: PES with PDMS; equilibration time (d): 3
parameter_measured: chemical recovery into PDMS (%)
Numbers only, in %.

Answered cases to consult:
CC(=O)[C@@]1(O)CC[C@H]2[C@@H]3C[C@H](C)C4=CC(=O)C=C[C@]4(C)[C@@]3(F)[C@@H](O)C[C@@]21C
3.75
ClC(Cl)=C(c1ccc(Cl)cc1)c1ccc(Cl)cc1
87.9
O=C(Nc1ccc(Cl)cc1)Nc1ccc(Cl)c(Cl)c1
7.7
CCOC(=O)CC(O)(CC(=O)OCC)C(=O)OCC [Triethylcitrate]
23.1
Nc1ccc(Cl)cc1
5.92
CC(=O)N1CCN(c2ccc(OC[C@H]3CO[C@](Cn4ccnc4)(c4ccc(Cl)cc4Cl)O3)cc2)CC1 (racemic)
0.0293
Cc1cc(Cl)ccc1OCC(=O)O
0.00652
CCC(=O)O[C@]1(C(=O)SCF)[C@H](C)C[C@H]2[C@@H]3C[C@H](F)C4=CC(=O)C=C[C@]4(C)[C@@]3(F)[C@@H](O)C[C@@]21C [Fluticasone propionate]
39.3
Fc1ccc([C@@H]2CCNC[C@H]2COc2ccc3c(c2)OCO3)cc1
0.313
CC(C)COP(=O)(OCC(C)C)OCC(C)C [Tri-isobutylphosphate]
39.9

Please report chemical recovery into PDMS for every entry that follows.
1. CC(C)NCC(O)COc1cccc2ccccc12 (centres undefined)
2. COCC(=O)N(c1c(C)cccc1C)C(C)C(=O)OC (centres undefined) [Metalaxyl]
3. Nc1cnn(-c2ccccc2)c(=O)c1Cl
4. N#C/N=C1\SCCN1Cc1ccc(Cl)nc1
5. CCCN(CCOc1c(Cl)cc(Cl)cc1Cl)C(=O)NC=O

stdout:
0.522
36.7
7.42
26.3
42.2

Please report chemical recovery into PDMS for every entry that follows.
1. Clc1cccc(Cl)c1NC1=NCCN1
2. CC(=O)[C@H]1CC[C@H]2[C@@H]3CCC4=CC(=O)CC[C@]4(C)[C@H]3CC[C@]12C
3. O=C1Nc2ccc(Cl)cc2C(c2ccccc2Cl)=NC1O (centres undefined)
4. c1ccc(-c2cccc(-c3ccccc3)c2)cc1

stdout:
[8.62, 50.6, 8.29, 86.8]
